# fold change (FC) annotations
target: Nuclear factor erythroid 2-related factor 2 (Homo sapiens) (UniProt Q16236); experiment: Induction of Nrf2/ARE activation in human Hela cells at 1 uM measured after 12 to 24 hrs by luciferase reporter gene assay relative to control; type: cell-based; details: filed as activator, time 12-24 hrs
Give the figure by itself; no unit, no explanation.

Look over these answered cases.
Request: Give recorded fold change (FC). COc1cc(/C=C/C(=O)N2CCN(Cc3noc(Cc4c[nH]c5ccccc45)n3)CC2)cc(OC)c1OC
Response: 1.24

Request: Give recorded fold change (FC). O=C(/C=C/c1cccc(O)c1)N1CCN(Cc2noc(Cc3c[nH]c4ccccc34)n2)CC1
Response: 2.3

Request: Give recorded fold change (FC). O=C(/C=C/c1ccc(O)c(O)c1)N1CCN(Cc2noc(Cc3c[nH]c4ccccc34)n2)CC1
Response: 1.41

Others:
Request: Give recorded fold change (FC). O=C(/C=C/c1ccc(O)cc1)N1CCN(Cc2noc(Cc3c[nH]c4ccccc34)n2)CC1
Response: 1.52

Request: Give recorded fold change (FC). Cc1ccc(C(=O)N2CCN(Cc3noc(Cc4c[nH]c5ccccc45)n3)CC2)cc1
Response: 1.04

====

# fold change (FC) annotations
Biological target: Nuclear factor erythroid 2-related factor 2 (Homo sapiens) (UniProt Q16236)
Sequence (whole entry): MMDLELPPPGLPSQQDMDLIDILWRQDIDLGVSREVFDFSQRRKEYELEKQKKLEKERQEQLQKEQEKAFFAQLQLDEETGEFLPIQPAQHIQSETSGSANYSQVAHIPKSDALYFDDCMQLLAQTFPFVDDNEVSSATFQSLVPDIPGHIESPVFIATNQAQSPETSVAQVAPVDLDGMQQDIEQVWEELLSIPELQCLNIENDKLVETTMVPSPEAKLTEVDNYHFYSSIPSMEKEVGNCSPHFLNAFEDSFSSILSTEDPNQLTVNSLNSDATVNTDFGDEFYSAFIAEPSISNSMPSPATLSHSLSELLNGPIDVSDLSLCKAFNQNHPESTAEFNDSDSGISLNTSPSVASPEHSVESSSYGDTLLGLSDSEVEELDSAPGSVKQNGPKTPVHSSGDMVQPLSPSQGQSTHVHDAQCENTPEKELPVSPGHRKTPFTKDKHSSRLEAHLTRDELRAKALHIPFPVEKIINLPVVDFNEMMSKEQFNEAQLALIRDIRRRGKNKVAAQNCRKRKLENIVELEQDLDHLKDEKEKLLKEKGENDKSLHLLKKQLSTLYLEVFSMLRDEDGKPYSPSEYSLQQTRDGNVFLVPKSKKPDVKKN
Experiment: Induction of Nrf2/ARE activation in human Hela cells at 1 uM measured after 12 to 24 hrs by luciferase reporter gene assay relative to control
Format: cell-based
Details: filed as activator, time 12-24 hrs
Give the figure by itself; no unit, no explanation.

Look over these answered cases.
Request: Give recorded fold change (FC). O=C(/C=C/c1ccc(Cl)cc1)N1CCN(Cc2noc(Cc3c[nH]c4ccccc34)n2)CC1
Response: 1.21

Request: Give recorded fold change (FC). COc1ccc(/C=C/C(=O)N2CCN(Cc3noc(Cc4c[nH]c5ccccc45)n3)CC2)cc1
Response: 1.22

Request: Give recorded fold change (FC). c1ccc2cc(CN3CCN(Cc4noc(Cc5c[nH]c6ccccc56)n4)CC3)ccc2c1
Response: 1.09

Others:
Request: Give recorded fold change (FC). COc1ccc(OC)c(/C=C/C(=O)N2CCN(Cc3noc(Cc4c[nH]c5ccccc45)n3)CC2)c1
Response: 1.12

Request: Give recorded fold change (FC). O=C(/C=C/c1ccc2c(c1)OCO2)N1CCN(Cc2noc(Cc3c[nH]c4ccccc34)n2)CC1
Response: 1.12

Request: Give recorded fold change (FC). O=C(/C=C/c1cccc(Br)c1)N1CCN(Cc2noc(Cc3c[nH]c4ccccc34)n2)CC1
Response: 1.31
